The origin of these recorded values is patent US20250376519A1.

binders and their reported koff
- Subject of test: T1, human DLL3 (ACRO, DLL3-H52H4) (human, UniProt Q9NYJ7 27-492)
- T1 construct: Bought
- T1 sequence: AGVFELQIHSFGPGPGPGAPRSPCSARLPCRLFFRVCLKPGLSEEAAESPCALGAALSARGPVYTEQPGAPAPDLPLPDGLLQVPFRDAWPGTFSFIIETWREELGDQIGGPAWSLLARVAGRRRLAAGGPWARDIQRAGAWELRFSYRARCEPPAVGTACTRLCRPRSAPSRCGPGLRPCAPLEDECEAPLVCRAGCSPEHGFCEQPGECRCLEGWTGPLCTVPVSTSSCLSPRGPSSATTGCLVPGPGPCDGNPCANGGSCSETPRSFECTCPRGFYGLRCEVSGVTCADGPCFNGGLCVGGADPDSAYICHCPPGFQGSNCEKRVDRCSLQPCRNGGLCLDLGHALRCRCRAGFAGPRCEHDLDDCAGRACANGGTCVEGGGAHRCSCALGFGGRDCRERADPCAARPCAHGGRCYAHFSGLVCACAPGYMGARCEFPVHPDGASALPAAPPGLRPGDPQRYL
- Assay summary: SPR Biacore 8K, Ab captured on Protein A

Binder | koff, s⁻¹
hu98L3H4 (antibody, human IgG1, kappa, V domains shown) VH: EVQLVESGGGLVQPGGSLRLSCAASGFTFSDYGIHWVRQAPGKGLEWVAYISSGGYTSYYADTVKGRFTISRDNAKNSLYLQMNSLRAEDTAVYYCARGDYEDIFYTMDYWGQGTTVTVSS VL: DIQMTQSPSSLSASVGDRVTITCRASRDITKFLNWYQQKPGGAVKLLIYYTSRLHSGVPSRFSGSGSGTDYTLTISSLQPEDFATYYCQQGNTLPWTFGGGTKVEIKR | 0.00151
hu30L2H3 (antibody, human IgG1, kappa, V domains shown) VH: EVRLVQSGAEVKKPGASVKVSCKASGYTFTDYYMNWVRQAPGQSLEWMGIINPYQGDTSYNQKFRGRVTLTVDKSASTAYMELSSLRSEDTAVYYCARYHYGPHLEGYFDVWGQGTTVTVSS VL: DIVMTQSPDSLAVSLGERATINCKASENVGYVSWYQQKPGQPPKLLIYGASNRYTGVPDRFSGSGSATDFTLTISSLQAEDVAVYHCGQSYSYPLTFGQGTKLEIKR | 0.00138
hu6L2H3 (antibody, human IgG1, kappa, V domains shown) VH: EVQLVQSGAEVKKPGASVKVSCKASGYTFTDYYMNWVRQAPGQRLEWIGIINPYSGVTIYNHKFKGRATLTVDKSANTAYMELSSLRSEDTAVYYCARQDSLLDYAMDYWGQGTTVTVSS VL: DIQMTQSPSSLSASVGDRVTITCHASQGISGNMGWLQQKPGKAPKGLIYHGANLEDGVPSRFSGSGSGADYTLTISSLQPEDFATYYCVQYAQFPYTFGGGTKVEIKR | 0.00139
hu6L2H5 (antibody, human IgG1, kappa, V domains shown) VH: EVQLVQSGSELKKPGASVKVSCKASGYTFTDYYMNWVRQAPGQGLEWMGIINPYSGVTIYNHKFKGRFVLSVDKSVSTAYLQISSLKAEDTAVYYCARQDSLLDYAMDYWGQGTTVTVSS VL: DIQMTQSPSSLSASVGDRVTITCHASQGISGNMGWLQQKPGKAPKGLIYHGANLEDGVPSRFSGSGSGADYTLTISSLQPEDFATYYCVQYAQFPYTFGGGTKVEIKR | 0.000784
